Cited source: patent US20020143059A1

target-or-system: LRAT (Bos taurus)
Construct: followed by approximately 15 μg of RPE microsomal protein; tissue W. L. Lawson Co., Lincoln, Nebr; host or cells: bovine retinal pigment epithelium microsomes
test-name: Assay for LRAT activity, RPE microsomes
Assay type: biochemical, bovine
condition-info: 10 μm compound
recorded-metric: % Inhibition LRAT (10 μm) (%)
Use % as the unit, but write only the number.

Q: Look up % Inhibition LRAT (10 μm) for this compound: C/C=C/C(=O)C1C(C)C=CCC1(C)C (stereo not shown)
Result: 64

Q: Continue with CCCCCCCC(=O)OC[C@H](COP(=O)(O)OCCN)OC(=O)CCCCCCC
Result: 0

Q: Continue with C/C=C/C(=O)C1=C(C)C=CCC1(C)C
Result: 29

Q: Continue with C/C=C/C(=O)C1=C(C)CCCC1(C)C
Result: 52

----------
target-or-system: TGase I
test-name: Transglutaminase (TGase I ELISA) assay in cultured keratinocytes
Type: cell-based
condition-info: booster in combination with a constant retinol concentration of 10^−7M; read-out: Overall TG (IC 50)
Please go through the items and note down their IC50.
Use µM as the unit, but write only the number.

Q: Look up IC50 for this compound: CCCCCCCCCCCCC/C=C/[C@@H](O)[C@H](CO)NC(C)=O
Result: 6.78

Q: Continue with CCCCCCCC/C=C\CCCCCCCC1=NCCN1CCO [Oleyl Hydroxyethylimidazoline]
Result: 30.2

Q: Continue with CCCCCCCCCCCCC/C=C/[C@@H](O)[C@H](CO)NC(=O)CCCCC
Result: 99.9

Q: Continue with CCCCCCCC/C=C\CCCCCCCC[N+](C)(C)CC(=O)[O-]
Result: 28

Q: Continue with CC(=O)/C=C/C1C(C)=CCCC1(C)C (stereo not shown)
Result: 927

Q: Continue with CCCCCCCCCCCC1=NCCN1CCO [Lauryl Hydroxyethylimidazoline]
Result: 0.467

Q: Continue with CCCCCCCCCCC(O)C(=O)NCCO (stereo not shown) [Hydroxyethyl-2-Hydroxy-C12 Amide]
Result: 32.9

Q: Continue with C/C=C\C(=O)C1C(C)=CCCC1(C)C (stereo not shown)
Result: 335

Q: Continue with O=c1c2cccc3cccc(c32)c2nc3ccccc3n12
Result: 0.859

Q: Continue with CCCCC/C=C\C/C=C\CCCCCCCC(=O)NCCO [Linoleoyl Monoethanolamide]
Result: 16.1

----------
target-or-system: LRAT (Bos taurus)
Construct: followed by approximately 15 μg of RPE microsomal protein; tissue W. L. Lawson Co., Lincoln, Nebr; host or cells: bovine retinal pigment epithelium microsomes
Sequence (Q9BGL2 1-230): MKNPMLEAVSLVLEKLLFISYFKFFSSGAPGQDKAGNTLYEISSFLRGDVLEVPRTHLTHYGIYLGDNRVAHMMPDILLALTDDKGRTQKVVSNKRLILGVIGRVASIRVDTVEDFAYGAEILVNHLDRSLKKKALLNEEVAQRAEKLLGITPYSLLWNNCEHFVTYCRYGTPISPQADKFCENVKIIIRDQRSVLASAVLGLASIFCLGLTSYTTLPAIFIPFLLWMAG
test-name: Assay for LRAT activity, RPE microsomes
Assay type: biochemical, bovine
condition-info: 100 μm compound
Please go through the items and note down their % Inhibition LRAT (100 μm).

Q: Look up % Inhibition LRAT (100 μm) for this compound: CCC(=O)/C=C/C1C(C)=CCCC1(C)C (stereo not drawn) [Alpha-Methyl Ionone]
Result: 77%

Q: Continue with C/C=C\C(=O)C1C(C)=CCCC1(C)C (stereo not drawn) [Alpha-Damascone]
Result: 98% +/− 1

Q: Continue with C/C=C/C(=O)C1=C(C)C=CCC1(C)C [Damascenone]
Result: 79%

Q: Continue with CCCCC/C=C\C/C=C\CCCCCCCC(=O)N(CCO)CCO [Linoleoyl Diethanolamide]
Result: 51% +/− 15

Q: Continue with CC=CC(=O)C1CCC(C)(C)C=C1C (stereo not drawn) [Isodamascone]
Result: 92%

Q: Continue with CCOC(=O)C1=C(C)C=CCC1(C)C [Ethyl Saffranate]
Result: 49%

Q: Continue with CC1=CCC(CCC(C)CO)C1(C)C (stereo not drawn) [Brahmanol]
Result: 75%

Q: Continue with CC(=O)/C=C/C=C(\C)CCC=C(C)C [Pseudoionone]
Result: 37%

Q: Continue with CCCCCCCCCCC(O)C(=O)NCCO (stereo not drawn) [Hydroxyethyl-2-Hydroxy-C12 Amide]
Result: 35%

----------
Please go through the items and note down their % Inhibition Retinal Reductase.
System: Retinal Reductase
test-name: Assay for Retinal Reductase Activity, liver microsomes
Type: biochemical, rat
condition-info: test compound final 100 μM (method)
Use % +/− 2 as the unit, but write only the number.

Q: Look up % Inhibition Retinal Reductase for this compound: CC1(C)[C@@H](OC(=O)CCC(=O)O)CC[C@]2(C)[C@H]3C(=O)C=C4[C@@H]5C[C@@](C)(C(=O)O)CC[C@]5(C)CC[C@@]4(C)[C@]3(C)CC[C@@H]12 [Carbenoxolone, reference compound]
Result: 26

Q: Continue with CCCCC/C=C\C/C=C\CCCCCCCC(=O)O [Linoleic Acid]
Result: 62

----------
Tested on: retinoic acid oxidation (cytochrome P450 systems)
test-name: Assay for NADPH Dependent Retinoic Acid Oxidation, liver microsomes
Format: biochemical, rat
condition-info: 100 μM compound
Threshold check on % Inhibition Retinoic Acid (100 μM): at or above 90% gives 1, strictly below gives 0.

Q: State whether the measured % Inhibition Retinoic Acid (100 μM) reaches 90%, counting equality as reaching it, for O=c1c(O)c(-c2ccc(O)c(O)c2)oc2cc(O)cc(O)c12
Result: 0

Q: Continue with CC(=O)N1CCN(c2ccc(OCC3COC(Cn4ccnc4)(c4ccc(Cl)cc4Cl)O3)cc2)CC1 (stereo not shown)
Result: 0

Q: Continue with Clc1ccc(COC(Cn2ccnc2)c2ccc(Cl)cc2Cl)cc1 (stereo not shown)
Result: 1

Q: Continue with c1ccc(-c2ccc(C(c3ccccc3)n3ccnc3)cc2)cc1 (stereo not shown)
Result: 1

Q: Continue with CC(C)(C(=O)c1cccnc1)c1cccnc1
Result: 0

Q: Continue with Clc1ccc(COC(Cn2ccnc2)c2ccc(Cl)cc2Cl)c(Cl)c1 (stereo not shown)
Result: 0

----------
Tested on: retinoic acid oxidation (cytochrome P450 systems)
test-name: Assay for NADPH Dependent Retinoic Acid Oxidation, liver microsomes
Format: biochemical, rat
condition-info: 10 μM compound
recorded-metric: % Inhibition Retinoic Acid (10 μM) (%)
Use % as the unit, but write only the number.

Q: API: value(readout= % Inhibition Retinoic Acid (10 μM), system= retinoic acid oxidation (cytochrome P450 systems), query= CC(C)(C)C(=O)C(Oc1ccc(Cl)cc1)n1ccnc1 (stereo not shown) )
Result: 80

Q: Continue with Clc1ccc(COC(Cn2ccnc2)c2ccc(Cl)cc2Cl)c(Cl)c1 (stereo not shown)
Result: 74

Q: Continue with CC(=O)N1CCN(c2ccc(OCC3COC(Cn4ccnc4)(c4ccc(Cl)cc4Cl)O3)cc2)CC1 (stereo not shown)
Result: 84

Q: Continue with O=c1c(O)c(-c2ccc(O)c(O)c2)oc2cc(O)cc(O)c12
Result: 40

Q: Continue with Clc1ccccc1C(c1ccccc1)(c1ccccc1)n1ccnc1
Result: 76

Q: Continue with c1ccc(-c2ccc(C(c3ccccc3)n3ccnc3)cc2)cc1 (stereo not shown)
Result: 89

Q: Continue with Clc1ccc(COC(Cn2ccnc2)c2ccc(Cl)cc2Cl)cc1 (stereo not shown)
Result: 88

----------
Tested on: TGase I
test-name: Transglutaminase (TGase I ELISA) assay in cultured keratinocytes
Type: cell-based
condition-info: Keratinocyte; booster in combination with a constant retinol concentration of 10^−7M; read-out: Overall TG (IC 50)
recorded-metric: IC50 (µM)
Use µM as the unit, but write only the number.

Q: Look up IC50 for this compound: CC1(C)[C@@H](O)CC[C@]2(C)[C@H]3C(=O)C=C4[C@@H]5C[C@@](C)(C(=O)O)CC[C@]5(C)CC[C@@]4(C)[C@]3(C)CC[C@@H]12
Result: 8.64

----------
Please go through the items and note down their % Inhibition LRAT (100 μm).
target-or-system: LRAT (Bos taurus)
Construct: followed by approximately 15 μg of RPE microsomal protein; tissue W. L. Lawson Co., Lincoln, Nebr; host or cells: bovine retinal pigment epithelium microsomes
test-name: Assay for LRAT activity, RPE microsomes
Assay type: biochemical, bovine
condition-info: 100 μm compound
Use % as the unit, but write only the number.

Q: Look up % Inhibition LRAT (100 μm) for this compound: CC(=O)C1(C)C2CC3C(C2)C31C (stereo not shown)
Result: 12

Q: Continue with CC(=O)/C(C)=C/C1C(C)=CCCC1(C)C (stereo not shown)
Result: 38

Q: Continue with C/C=C/C(=O)C1=C(C)CCCC1(C)C
Result: 92

Q: Continue with CC1=CC(C)C(CO)C(C)C1 (stereo not shown)
Result: 16

Q: Continue with CC(=O)CCC1C(C)=CCCC1(C)C (stereo not drawn) [Dihydro Alpha-Ionone]
Result: 18

Q: Continue with C/C=C/C(=O)C1C(C)C=CCC1(C)C (stereo not shown)
Result: 95

Q: Continue with CCCC(O)CCC1C(C)CCCC1(C)C (stereo not shown)
Result: 33
